# tested_target: Tyrosine-protein kinase JAK2 (Homo sapiens)
# Sequence (O60674 whole entry): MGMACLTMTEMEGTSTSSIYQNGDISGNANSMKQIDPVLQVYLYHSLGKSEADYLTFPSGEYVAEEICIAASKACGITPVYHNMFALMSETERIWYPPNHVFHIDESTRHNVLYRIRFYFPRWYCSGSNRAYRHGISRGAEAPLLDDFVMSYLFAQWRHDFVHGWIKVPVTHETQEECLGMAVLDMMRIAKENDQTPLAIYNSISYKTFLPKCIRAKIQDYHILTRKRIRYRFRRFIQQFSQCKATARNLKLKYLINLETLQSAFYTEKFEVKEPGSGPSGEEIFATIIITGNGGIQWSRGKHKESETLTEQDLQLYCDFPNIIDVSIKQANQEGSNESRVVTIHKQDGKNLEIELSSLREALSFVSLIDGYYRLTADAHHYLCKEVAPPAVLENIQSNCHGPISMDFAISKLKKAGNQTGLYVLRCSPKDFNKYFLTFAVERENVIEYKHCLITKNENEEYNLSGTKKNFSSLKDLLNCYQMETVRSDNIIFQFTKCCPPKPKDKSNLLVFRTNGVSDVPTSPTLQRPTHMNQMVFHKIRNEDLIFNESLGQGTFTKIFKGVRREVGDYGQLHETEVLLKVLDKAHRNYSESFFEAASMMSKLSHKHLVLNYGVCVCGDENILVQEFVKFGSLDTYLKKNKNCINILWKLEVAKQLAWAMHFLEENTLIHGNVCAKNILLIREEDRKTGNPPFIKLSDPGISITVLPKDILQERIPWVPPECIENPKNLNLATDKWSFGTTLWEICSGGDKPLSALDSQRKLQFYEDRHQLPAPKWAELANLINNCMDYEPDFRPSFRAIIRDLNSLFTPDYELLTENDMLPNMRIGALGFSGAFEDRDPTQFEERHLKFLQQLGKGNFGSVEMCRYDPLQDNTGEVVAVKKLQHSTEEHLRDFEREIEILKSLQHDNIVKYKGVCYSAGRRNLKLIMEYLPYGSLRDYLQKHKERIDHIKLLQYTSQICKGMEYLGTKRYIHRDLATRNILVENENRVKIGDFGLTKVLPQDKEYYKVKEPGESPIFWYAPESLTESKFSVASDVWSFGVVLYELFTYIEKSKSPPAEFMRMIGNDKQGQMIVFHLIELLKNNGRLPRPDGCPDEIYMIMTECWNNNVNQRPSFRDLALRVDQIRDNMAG
# assay_comment: Inhibition of JAK2 (unknown origin) by Lanthascreen kinase assay
measured_attribute: pIC50
Convention used: pIC50 is expressed as -log10 of the molar concentration.

pIC50 reported for this compound Cc1cc(Nc2ccc3nc(C)n([C@@H]4CCc5ccc(F)cc54)c3c2)[nH]n1 : 8.70

----------
# assay_comment: Antiproliferative activity against mouse BaF3 cells assessed as inhibition of cell proliferation incubated for 72 hrs by XTT assay
# Assay type: toxicity, cell-based
measured_attribute: IC50 at 72 h
Please state the value followed by its unit.

IC50 at 72 h reported for this molecule Cc1cnc(Nc2ccc(OCCN3CCCC3)cc2)nc1Nc1cccc(S(=O)(=O)NC(C)(C)C)c1 : 420 nM

----------
# Tested on: BaF3
# assay_comment: Inhibition of cell proliferation in mouse BaF3 cells expressing JAK2 V617F mutant
# Type: toxicity, cell-based
measured_attribute: IC50 (nM)
Give just the numeric value; nM need not be written.

Short answer on BaF3 for Cc1cc(Nc2cc(CN3CCOCC3)c3nc(C)c(Cc4ccc(Cl)cc4F)n3n2)n[nH]1 [GANDOTINIB] , IC50: 55

----------
# tested_target: Non-receptor tyrosine-protein kinase TYK2 (Homo sapiens)
# Sequence (P29597 whole entry, the tested form may be a part): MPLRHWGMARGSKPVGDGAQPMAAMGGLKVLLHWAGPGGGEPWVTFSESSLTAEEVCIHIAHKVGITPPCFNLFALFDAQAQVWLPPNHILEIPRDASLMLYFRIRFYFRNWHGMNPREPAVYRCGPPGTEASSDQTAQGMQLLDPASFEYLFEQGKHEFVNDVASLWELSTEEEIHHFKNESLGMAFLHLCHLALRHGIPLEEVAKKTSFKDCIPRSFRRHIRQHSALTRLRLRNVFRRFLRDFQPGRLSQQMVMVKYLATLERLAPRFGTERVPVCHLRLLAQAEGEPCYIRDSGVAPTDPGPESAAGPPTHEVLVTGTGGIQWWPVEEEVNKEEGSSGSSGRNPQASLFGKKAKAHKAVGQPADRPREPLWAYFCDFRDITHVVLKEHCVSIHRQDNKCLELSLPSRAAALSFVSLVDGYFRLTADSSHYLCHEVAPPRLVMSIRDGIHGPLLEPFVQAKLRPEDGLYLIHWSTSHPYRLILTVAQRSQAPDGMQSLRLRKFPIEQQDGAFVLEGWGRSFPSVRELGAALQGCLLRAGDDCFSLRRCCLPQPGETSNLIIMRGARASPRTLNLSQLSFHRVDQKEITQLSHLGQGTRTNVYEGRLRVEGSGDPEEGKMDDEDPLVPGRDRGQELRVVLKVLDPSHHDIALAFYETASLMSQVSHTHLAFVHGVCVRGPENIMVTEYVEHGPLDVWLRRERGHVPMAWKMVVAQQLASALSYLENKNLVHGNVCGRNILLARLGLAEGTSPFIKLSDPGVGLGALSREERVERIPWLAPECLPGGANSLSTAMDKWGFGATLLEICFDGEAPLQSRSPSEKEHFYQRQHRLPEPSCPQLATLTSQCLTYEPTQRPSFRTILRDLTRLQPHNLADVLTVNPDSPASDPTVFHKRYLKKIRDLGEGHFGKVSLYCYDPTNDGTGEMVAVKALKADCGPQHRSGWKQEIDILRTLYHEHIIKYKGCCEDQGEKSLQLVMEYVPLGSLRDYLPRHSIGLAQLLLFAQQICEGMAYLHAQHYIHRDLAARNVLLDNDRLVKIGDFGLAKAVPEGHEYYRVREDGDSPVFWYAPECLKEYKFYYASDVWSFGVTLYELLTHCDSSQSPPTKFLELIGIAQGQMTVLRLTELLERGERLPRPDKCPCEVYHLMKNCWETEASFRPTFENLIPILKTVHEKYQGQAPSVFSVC
# assay_comment: Inhibition of TYK2 (unknown origin)
measured_attribute: pIC50
Convention used: pIC50 is expressed as -log10 of the molar concentration.

pIC50 reported for this compound N#CCC1(n2cc(-c3ncnc4[nH]ccc34)cn2)CN(C2CCN(C(=O)c3ccnc(C(F)(F)F)c3F)CC2)C1 [ITACITINIB] : 6.10

pIC50 reported for this compound Cc1cc(Nc2cc(CN3CCOCC3)c3nc(C)c(Cc4ccc(Cl)cc4F)n3n2)n[nH]1 [GANDOTINIB] : 7.36

pIC50 reported for this compound CC1(C)CN(C(=O)c2ccc(-c3cccc4nc(NC(=O)C5CC5)nn34)cc2)C1 [SOLCITINIB] : 6.65

----------
# tested_target: Tyrosine-protein kinase JAK3 (Homo sapiens, UniProt P52333)
# Sequence (P52333 whole entry): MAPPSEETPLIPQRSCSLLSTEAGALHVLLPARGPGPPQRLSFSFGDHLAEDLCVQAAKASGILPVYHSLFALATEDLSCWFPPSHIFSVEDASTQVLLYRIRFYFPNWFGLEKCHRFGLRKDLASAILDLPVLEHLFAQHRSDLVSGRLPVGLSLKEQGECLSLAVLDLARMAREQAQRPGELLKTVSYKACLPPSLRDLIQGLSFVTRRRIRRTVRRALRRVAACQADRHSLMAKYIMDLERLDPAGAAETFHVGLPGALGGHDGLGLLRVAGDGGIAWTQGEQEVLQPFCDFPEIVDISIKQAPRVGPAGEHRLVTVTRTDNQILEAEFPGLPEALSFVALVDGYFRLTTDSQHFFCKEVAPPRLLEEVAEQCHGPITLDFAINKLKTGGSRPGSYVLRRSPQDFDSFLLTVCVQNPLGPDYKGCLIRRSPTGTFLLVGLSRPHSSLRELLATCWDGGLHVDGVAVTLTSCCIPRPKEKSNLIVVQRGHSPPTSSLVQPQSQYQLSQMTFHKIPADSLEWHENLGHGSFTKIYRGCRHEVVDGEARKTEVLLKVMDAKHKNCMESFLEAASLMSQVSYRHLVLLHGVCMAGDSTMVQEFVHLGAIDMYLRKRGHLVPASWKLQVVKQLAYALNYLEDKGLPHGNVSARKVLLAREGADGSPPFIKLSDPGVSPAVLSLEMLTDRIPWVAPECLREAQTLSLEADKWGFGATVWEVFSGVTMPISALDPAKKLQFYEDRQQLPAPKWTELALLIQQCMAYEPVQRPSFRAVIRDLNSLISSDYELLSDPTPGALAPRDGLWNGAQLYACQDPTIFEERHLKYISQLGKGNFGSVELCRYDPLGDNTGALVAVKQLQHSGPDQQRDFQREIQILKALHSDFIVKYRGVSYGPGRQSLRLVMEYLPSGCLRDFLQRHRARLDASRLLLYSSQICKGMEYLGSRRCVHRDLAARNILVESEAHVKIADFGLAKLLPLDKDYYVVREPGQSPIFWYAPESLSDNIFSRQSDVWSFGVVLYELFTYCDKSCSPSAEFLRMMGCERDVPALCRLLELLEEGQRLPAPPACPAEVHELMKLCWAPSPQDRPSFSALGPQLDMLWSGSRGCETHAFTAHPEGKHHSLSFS
# assay_comment: Inhibition of human JAK3 kinase domain incubated for 1 hrs in the presence of ATP by spectrophotometric analysis
measured_attribute: IC50
Please state the value followed by its unit.

Short answer on Tyrosine-protein kinase JAK3 (Homo sapiens, UniProt P52333) for C[C@H](Nc1cc(-c2cnn(C)c2)cc(Nc2cnccn2)n1)c1ccc(F)cc1 [NS-018] , IC50: 39 nM

----------
# tested_target: Tyrosine-protein kinase JAK2 (Homo sapiens)
# assay_comment: Competitive inhibition of JAK2 (unknown origin) in the presence of ATP
measured_attribute: IC50 (nM)
Give just the numeric value; nM need not be written.

IC50 reported for this compound Cc1cc(Nc2nc(N[C@@H](C)c3ncc(F)cn3)ncc2Cl)n[nH]1 [AZD-1480] : 0.4

----------
# tested_target: Tyrosine-protein kinase JAK3 (Homo sapiens)
# assay_comment: Inhibition of JAK3 (unknown origin) by Lanthascreen kinase assay
Would you kindly list pIC50 for each of these compounds?
Convention used: pIC50 is expressed as -log10 of the molar concentration.

Short answer on Tyrosine-protein kinase JAK3 (Homo sapiens) for Cc1cc(Nc2cc(CN3CCOCC3)c3nc(C)c(Cc4ccc(Cl)cc4F)n3n2)n[nH]1 [GANDOTINIB] , pIC50: 7.32

Short answer on Tyrosine-protein kinase JAK3 (Homo sapiens) for Cc1cc(Nc2ccc3nc(C)n([C@@H]4CCc5ccc(F)cc54)c3c2)[nH]n1 , pIC50: 8.10

----------
# tested_target: Non-receptor tyrosine-protein kinase TYK2 (Homo sapiens)
# assay_comment: Inhibition of human TYK2 kinase domain incubated for 1 hrs in the presence of ATP by spectrophotometric analysis
measured_attribute: IC50 (nM)
Give just the numeric value; nM need not be written.

IC50 reported for this compound C[C@H](Nc1cc(-c2cnn(C)c2)cc(Nc2cnccn2)n1)c1ccc(F)cc1 : 22
